- target.desc: T1, Growth and Differentiation Factor 15 (GDF15) (UniProt Q99988 197-308, limits assumed)
- T1 construct: also called MIC-1; MIC1
- T1 sequence (looked up): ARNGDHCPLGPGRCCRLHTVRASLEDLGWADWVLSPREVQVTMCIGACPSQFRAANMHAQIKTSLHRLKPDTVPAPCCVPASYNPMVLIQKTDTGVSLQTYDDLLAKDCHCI
- assay.text: ELISA, peptide on streptavidin plate, ligand 100 ng/ml
Ends that are not written are not given here.
measurement.label: ELISA OD450 (OD450)
Report as a plain number; the unit OD450 is understood.

Quick one: give measured ELISA OD450 for YPINESLASLPLRVSFCPLSG (also: biotinylated, site not given here, also called peptide 20) [CLPTM1 peptide fragment of SEQ ID NO: 27]
0.22

Quick one: give measured ELISA OD450 for GSIYIHVYFTKSGFHPDPRQG (also: biotinylated, site not given here) [CLPTM1 peptide fragment of SEQ ID NO: 16]
0.149

Quick one: give measured ELISA OD450 for AAAQEADGARSAVVAAGGGSG (also: biotinylated, site not given here) [CLPTM1 peptide fragment of SEQ ID NO: 8]
0.022

Quick one: give measured ELISA OD450 for LWRWQLYAAQSTKSPWNFLGG (also: biotinylated, site not given here) [CLPTM1 peptide fragment of SEQ ID NO: 26]
0.033

Quick one: give measured ELISA OD450 for QAGPGGAPRVASRNLFPKDTG (also: biotinylated, site not given here) [CLPTM1 peptide fragment of SEQ ID NO: 12]
0.034

Quick one: give measured ELISA OD450 for SALFWEQHDLVYGDWTSGENG (also: biotinylated, site not given here) [CLPTM1 peptide fragment of SEQ ID NO: 14]
0.034
